As an illustration, consider measured log10 of IC50 for compounds on Cls (Homo sapiens).
Sequence (P09871 438-688 limits assumed): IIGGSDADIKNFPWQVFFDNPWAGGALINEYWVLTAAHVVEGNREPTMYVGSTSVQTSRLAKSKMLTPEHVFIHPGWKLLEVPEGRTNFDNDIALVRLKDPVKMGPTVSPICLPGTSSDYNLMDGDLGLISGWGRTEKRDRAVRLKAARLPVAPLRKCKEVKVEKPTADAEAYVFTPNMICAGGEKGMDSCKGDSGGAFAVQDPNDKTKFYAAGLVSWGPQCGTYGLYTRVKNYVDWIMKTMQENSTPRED
Sequence (P09871 16-437 limits assumed): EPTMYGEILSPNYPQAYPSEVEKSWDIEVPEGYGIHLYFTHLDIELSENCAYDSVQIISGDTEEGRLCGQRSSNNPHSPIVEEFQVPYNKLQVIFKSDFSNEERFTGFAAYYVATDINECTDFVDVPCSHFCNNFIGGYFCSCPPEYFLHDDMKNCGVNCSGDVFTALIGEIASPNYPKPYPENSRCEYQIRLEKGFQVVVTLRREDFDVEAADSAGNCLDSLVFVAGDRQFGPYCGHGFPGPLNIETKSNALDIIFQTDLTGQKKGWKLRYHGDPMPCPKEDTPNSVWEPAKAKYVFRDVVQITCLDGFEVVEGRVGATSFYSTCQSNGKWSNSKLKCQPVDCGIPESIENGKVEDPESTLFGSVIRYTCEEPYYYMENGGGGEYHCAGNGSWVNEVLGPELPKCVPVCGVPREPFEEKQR
Parameter measured: log10 of IC50 (log10 of the value in nM)

Compound: N=C(N)c1ccc(OC(=O)[C@H]2CC[C@H](CNC(=O)OCc3ccccc3)CC2)c(C(=O)c2ccccc2)c1
log10 of IC50: 2.48
--
Compound: COc1cc(C(=N)N)ccc1OC(=O)c1ccc(C)cc1
log10 of IC50: 2.48
--
Compound: COc1cc(C(=N)N)ccc1OC(=O)c1ccc(CNC(=O)OCc2ccccc2)cc1
log10 of IC50: 3.30
--
Compound: Cc1cccc(Nc2ccccc2C(=O)Oc2ccc(C(=N)N)cc2C(=O)c2ccccc2)c1C
log10 of IC50: 3.70
--
Compound: COc1cc(C(=N)N)ccc1OC(=O)c1ccc(CN)cc1
log10 of IC50: 3.60
--
Compound: N=C(N)c1ccc(OC(=O)c2ccccc2)c([N+](=O)[O-])c1 [Compound 27, 4-amidino-2-nitrophenyl benzoate]
log10 of IC50: 2.30
--
Compound: N=C(N)Nc1ccc(C(=O)Oc2ccc(C(=N)N)cc2[N+](=O)[O-])cc1
log10 of IC50: 2.30
--
Compound: COC(=O)c1cc(C(=N)N)ccc1OC(=O)c1ccc(CNC(=O)OCc2ccccc2)cc1
log10 of IC50: 2.48
--
Compound: Cc1ccc(C(=O)Oc2ccc(C(=N)N)cc2[N+](=O)[O-])cc1
log10 of IC50: 1.78
--
Compound: CC(C)(C)c1ccc(C(=O)Oc2ccc(C(=N)N)cc2[N+](=O)[O-])cc1
log10 of IC50: 2.48
--
Compound: N=C(N)c1ccc(OC(=O)c2ccccc2)c(C(=O)c2ccccc2)c1 [Compound 29, 4-amidino-2-benzoylphenyl benzoate]
log10 of IC50: 2.48
--
Compound: COC(=O)c1cc(C(=N)N)ccc1OC(=O)c1ccc(NC(=N)N)cc1
log10 of IC50: 2.30
--
Compound: CCCCOc1ccc(C(=O)Oc2ccc(C(=N)N)cc2[N+](=O)[O-])cc1
log10 of IC50: 2.78
--
Compound: N=C(N)Nc1ccc(C(=O)Oc2ccc(C(=N)N)cc2C(=O)c2ccccc2)c(Cl)c1
log10 of IC50: 2.90
